Experiment: In use comparison of musk lactone mixture A with commercial musks in unperfumed laundry detergent, expert panel
Set-up: species or system human
Conditions: 10% IPM @0.8%; dry towel 15 days, hedonic
Measurement type: DRY TWL 15 DAYS HED

>  <Compound>
O=C1CCCCCCCCOCCCCCCO1 [OXALIDE T, Oxalide T]

>  <Measurement type>
DRY TWL 15 DAYS HED

>  <Obs value>
0/0 (comparable)

$$$$
>  <Compound>
CC1CC=CCCCCCCCCCC(=O)C1 (stereo not shown)

>  <Measurement type>
DRY TWL 15 DAYS HED

>  <Obs value>
++/++

$$$$
>  <Compound>
C[C@@H]1CCCCCCCCCCCCC(=O)C1

>  <Measurement type>
DRY TWL 15 DAYS HED

>  <Obs value>
++

$$$$
>  <Compound>
COc1c(C(C)(C)C)cc([N+](=O)[O-])c(C)c1[N+](=O)[O-]

>  <Measurement type>
DRY TWL 15 DAYS HED

>  <Obs value>
0 (comparable)

$$$$

Prompt line: I have this compound here, O=C1CCC/C=C\CCCCCCCCCC1 , and I need its recorded DRY TWL 15 DAYS HED.
Response line: ++/++

* * *

Experiment: In use comparison of musk lactone mixture A with commercial musks in unperfumed laundry detergent, expert panel
Set-up: species or system human
Details: 10% IPM @0.8%; damp towel, strength

>  <Compound>
COc1c(C(C)(C)C)cc([N+](=O)[O-])c(C)c1[N+](=O)[O-]

>  <DAMP STR>
++

$$$$
>  <Compound>
C[C@@H]1CCCCCCCCCCCCC(=O)C1

>  <DAMP STR>
++

$$$$
>  <Compound>
O=C1CCCCCCCCCCCCCCCO1 [dihydroambrettolide]

>  <DAMP STR>
0 ((0) comparable)

$$$$
>  <Compound>
O=C1CCCCCCCCOCCCCCCO1 [OXALIDE T, Oxalide T]

>  <DAMP STR>
0/0 ((0) comparable)

$$$$

* * *

Test: In use comparison of musk lactone mixture A with commercial musks in unperfumed laundry detergent, expert panel
Parameters: species or system human
Conditions: 10% IPM @0.8%; dry towel 7 days, hedonic
Measurement type: DRY TWL 7 DAYS HED

Sample answers from the record:
>  <Molecule>
O=C1CCC/C=C\CCCCCCCCCC1 [velvione]

>  <DRY TWL 7 DAYS HED>
++/++

$$$$
>  <Molecule>
C[C@@H]1CCCCCCCCCCCCC(=O)C1 [MUSCONE, Muscone]

>  <DRY TWL 7 DAYS HED>
++

$$$$
>  <Molecule>
COc1c(C(C)(C)C)cc([N+](=O)[O-])c(C)c1[N+](=O)[O-] [musk ambrette]

>  <DRY TWL 7 DAYS HED>
0 (comparable)

$$$$
>  <Molecule>
O=C1CCCCCCCCOCCCCCCO1 [OXALIDE T, Oxalide T]

>  <DRY TWL 7 DAYS HED>
0/0 (comparable)

$$$$

Prompt line: I have this molecule here, CC1CC=CCCCCCCCCCC(=O)C1 (stereo not shown) [MUSCENONE, muscenone] , and I need its recorded DRY TWL 7 DAYS HED.
Response line: ++/++

* * *

Assay: In use comparison of musk lactone mixture A with commercial musks in unperfumed laundry detergent, expert panel
Set-up: species or system human
Conditions: 10% IPM @0.8%; dry towel 1 day, hedonic
Measurement type: DRY TWL 1 DAY HED

Sample answers from the record:
>  <Molecule>
O=C1CCCCCCCCOCCCCCCO1 [OXALIDE T, Oxalide T]

>  <Obs value>
0/0 (comparable)

$$$$
>  <Molecule>
O=C1CCC/C=C\CCCCCCCCCC1

>  <Obs value>
++/++

$$$$
>  <Molecule>
CC1CC=CCCCCCCCCCC(=O)C1 (stereo not shown)

>  <Obs value>
++/++

$$$$
>  <Molecule>
COc1c(C(C)(C)C)cc([N+](=O)[O-])c(C)c1[N+](=O)[O-]

>  <Obs value>
0 (comparable)

$$$$

Note: attention shifts to another entry.
Prompt line: I have this molecule here, C[C@@H]1CCCCCCCCCCCCC(=O)C1 , and I need its recorded DRY TWL 1 DAY HED.
Response line: ++
